- Assay system: Neuronal acetylcholine receptor; alpha4/beta2 (Homo sapiens, UniProt P17787+P43681)
- Sequence (P43681 whole entry, one chain of several, canonical isoform): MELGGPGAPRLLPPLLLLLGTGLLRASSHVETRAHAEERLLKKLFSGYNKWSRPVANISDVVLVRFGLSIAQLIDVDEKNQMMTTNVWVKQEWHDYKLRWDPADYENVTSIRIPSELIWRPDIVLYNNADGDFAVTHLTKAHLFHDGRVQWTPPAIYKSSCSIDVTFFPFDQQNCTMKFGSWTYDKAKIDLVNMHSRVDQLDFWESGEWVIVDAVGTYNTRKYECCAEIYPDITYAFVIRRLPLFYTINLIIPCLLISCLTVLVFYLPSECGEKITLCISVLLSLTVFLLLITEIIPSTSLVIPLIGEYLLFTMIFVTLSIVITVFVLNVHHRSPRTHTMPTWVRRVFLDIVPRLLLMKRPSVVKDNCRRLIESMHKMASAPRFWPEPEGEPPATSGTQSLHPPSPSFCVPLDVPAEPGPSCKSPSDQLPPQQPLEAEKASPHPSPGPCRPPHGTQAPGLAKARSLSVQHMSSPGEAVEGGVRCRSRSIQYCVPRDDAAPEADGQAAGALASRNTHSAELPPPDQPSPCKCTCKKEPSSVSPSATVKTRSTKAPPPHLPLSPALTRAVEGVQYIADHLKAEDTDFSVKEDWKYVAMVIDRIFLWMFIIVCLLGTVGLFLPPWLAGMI
- Protocol: Agonist activity at human alpha4beta2 nAChR low sensitivity isoform transfected in SH-EP1 cells assessed as calcium flux by FLIPR assay
- Assay type: cell-based
Reported pEC50 values for the following compounds.
Lab note — pEC50 values are minus log10 of concentrations in M.

O=C([C@@H]1C[C@H]1F)N1CC2CC(C1)N2 : 6.06
CC1(C)CC1C(=O)N1CC2CC(C1)N2 (centres undefined) : 5.24

IN: GET /values?readout=pEC50&item= CC(C)C(=O)N1CC2CC(C1)N2
OUT: 4.70

IN: I have this compound here, O=C(C1CC1(F)F)N1CC2CC(C1)N2 (centres undefined) , and I need its recorded pEC50.
OUT: 5.64

IN: Name the reported pEC50 value associated with the compound O=C([C@H]1C[C@@H]1F)N1CC2CC(C1)N2
OUT: 5.55

###

- Protocol: Drug uptake in po dosed rat brain after 0.5 hrs by LC-MS/MS analysis
- Type: ADME, organism-based
- Assay context: read-out: Drug uptake
Quantity name: concentration at 0.5 h (ng/g)
Return type: number; implicit unit ng/g.

IN: Given the entry O=C(C1CC1)N1CC2CC(C1)N2 , report its measured concentration at 0.5 h.
OUT: 39.5

###

- Protocol: Drug uptake in po dosed rat brain after 1 hrs by LC-MS/MS analysis
- Type: ADME, organism-based
- Assay context: read-out: Drug uptake
Quantity name: concentration at 1 h (ng/g)
Unit ng/g implied. Number only.

IN: So what's the measured concentration at 1 h for this one? O=C(C1CC1)N1CC2CC(C1)N2
OUT: 53.7

###

Measured Emax, listed per entry.
- Assay system: Neuronal acetylcholine receptor; alpha3/alpha6/beta2/beta3 (Homo sapiens) (UniProt P17787+P32297+Q15825+Q05901)
- Protocol: Agonist activity at human alpha6/alpha3beta2beta3 nAChR transfected in CHO cells assessed as calcium flux by FLIPR assay relative to control
- Format: cell-based

CC(=O)N1CC2CC(C1)N2 : 100%
O=C(C1CCCC1)N1CC2CC(C1)N2 : 62%

IN: Could you share which Emax value was measured for C[C@H]1C[C@H]1C(=O)N1CC2CC(C1)N2 ?
OUT: 60%

IN: Please give the measured Emax for this compound: O=C(C1CC=CC1)N1CC2CC(C1)N2
OUT: 99%

IN: Which Emax value belongs to O=C(C1CC1(F)F)N1CC2CC(C1)N2 (stereo not given) ?
OUT: 110%

###

- Assay system: Neuronal acetylcholine receptor; alpha3/alpha6/beta2/beta3 (Homo sapiens, UniProt P17787+P32297+Q05901+Q15825)
- Sequence (P17787 whole entry): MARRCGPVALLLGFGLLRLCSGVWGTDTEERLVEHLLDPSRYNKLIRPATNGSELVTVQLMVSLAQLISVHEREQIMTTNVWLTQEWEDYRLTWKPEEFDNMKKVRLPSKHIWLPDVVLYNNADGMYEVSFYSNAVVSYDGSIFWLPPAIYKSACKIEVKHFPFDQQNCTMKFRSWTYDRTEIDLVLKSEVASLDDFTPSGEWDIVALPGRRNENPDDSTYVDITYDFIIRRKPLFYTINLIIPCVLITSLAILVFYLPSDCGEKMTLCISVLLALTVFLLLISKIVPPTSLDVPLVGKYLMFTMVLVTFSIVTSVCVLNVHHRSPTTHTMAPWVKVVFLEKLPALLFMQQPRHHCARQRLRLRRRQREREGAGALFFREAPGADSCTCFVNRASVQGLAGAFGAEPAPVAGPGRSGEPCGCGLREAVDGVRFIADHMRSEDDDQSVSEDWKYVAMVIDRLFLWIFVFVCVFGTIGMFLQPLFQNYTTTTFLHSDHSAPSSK
- Sequence (P32297 whole entry): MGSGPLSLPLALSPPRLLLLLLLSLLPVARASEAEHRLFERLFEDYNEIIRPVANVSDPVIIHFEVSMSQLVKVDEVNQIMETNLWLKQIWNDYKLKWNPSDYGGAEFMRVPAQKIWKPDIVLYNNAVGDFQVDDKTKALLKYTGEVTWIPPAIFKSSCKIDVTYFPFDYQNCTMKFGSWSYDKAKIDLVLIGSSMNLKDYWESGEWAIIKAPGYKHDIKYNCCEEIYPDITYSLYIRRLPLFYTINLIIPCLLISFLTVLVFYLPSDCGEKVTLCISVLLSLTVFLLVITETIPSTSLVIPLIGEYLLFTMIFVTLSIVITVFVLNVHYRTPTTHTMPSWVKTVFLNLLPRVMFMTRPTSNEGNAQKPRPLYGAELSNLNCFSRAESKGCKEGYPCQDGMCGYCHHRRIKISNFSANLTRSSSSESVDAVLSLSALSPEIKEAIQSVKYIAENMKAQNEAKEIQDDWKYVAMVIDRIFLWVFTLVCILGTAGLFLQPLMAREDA
- Sequence (Q15825 whole entry): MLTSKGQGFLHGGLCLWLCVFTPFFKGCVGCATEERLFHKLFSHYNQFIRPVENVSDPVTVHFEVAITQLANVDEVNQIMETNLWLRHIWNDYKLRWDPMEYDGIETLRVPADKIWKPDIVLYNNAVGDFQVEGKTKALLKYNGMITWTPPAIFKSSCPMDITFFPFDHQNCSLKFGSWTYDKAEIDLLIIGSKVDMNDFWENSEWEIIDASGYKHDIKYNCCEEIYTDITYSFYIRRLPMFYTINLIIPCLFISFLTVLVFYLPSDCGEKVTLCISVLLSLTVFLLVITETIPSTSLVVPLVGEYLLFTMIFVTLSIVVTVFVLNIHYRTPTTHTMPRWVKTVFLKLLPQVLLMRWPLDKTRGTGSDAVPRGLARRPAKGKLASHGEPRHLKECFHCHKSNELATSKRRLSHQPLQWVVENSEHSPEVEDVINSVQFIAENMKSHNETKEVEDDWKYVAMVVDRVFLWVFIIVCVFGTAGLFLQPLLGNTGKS
- Sequence (Q05901 whole entry): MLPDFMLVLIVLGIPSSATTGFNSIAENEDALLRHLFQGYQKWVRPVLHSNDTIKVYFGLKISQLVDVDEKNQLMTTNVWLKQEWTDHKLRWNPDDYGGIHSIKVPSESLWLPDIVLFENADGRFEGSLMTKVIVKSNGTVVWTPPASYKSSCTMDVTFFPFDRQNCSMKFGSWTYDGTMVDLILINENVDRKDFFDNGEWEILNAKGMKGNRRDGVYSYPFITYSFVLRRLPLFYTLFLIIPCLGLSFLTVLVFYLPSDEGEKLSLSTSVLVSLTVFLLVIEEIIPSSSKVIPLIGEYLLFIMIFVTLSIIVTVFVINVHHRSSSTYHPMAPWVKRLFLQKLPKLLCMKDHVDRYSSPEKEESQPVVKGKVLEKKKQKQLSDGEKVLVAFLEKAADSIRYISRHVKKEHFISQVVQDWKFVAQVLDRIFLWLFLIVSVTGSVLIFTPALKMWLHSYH
- Protocol: Displacement of [3H]epibatidine from human alpha6/alpha3beta2beta3 nAChR transfected in CHO cells by liquid scintillation counting
Lab note - cut at 600 nM for Ki: True if strictly below, False if not.

O=C(C1CC=CC1)N1CC2CC(C1)N2 : False

Then there is this compound:
IN: In the record for O=C(C1CCC1)N1CC2CC(C1)N2 , is Ki less than 600 nM?
OUT: True

###

- Protocol: Ratio of drug level in po dosed rat brain to plasma after 1 hrs by LC-MS/MS analysis
- Assay type: ADME, organism-based
- Assay context: read-out: BPR
Quantity name: Kp at 1 h

IN: Can you share its Kp at 1 h? I mean this molecule: O=C(C1CC1)N1CC2CC(C1)N2
OUT: 0.31

###

- Assay system: Neuronal acetylcholine receptor; alpha3/alpha6/beta2/beta3 (Homo sapiens, UniProt P17787+P32297+Q05901+Q15825)
- Protocol: Agonist activity at human alpha6/alpha3beta2beta3 nAChR transfected in CHO cells assessed as calcium flux by FLIPR assay
Here the recorded EC50 is given for each entry.
Return type: number; implicit unit nM.

Below: 5 compounds and their reported EC50.
CCCC(=O)N1CC2CC(C1)N2 : 300
O=C(CC1C=CCC1)N1CC2CC(C1)N2 (stereo not drawn) : 21000
O=C(C1CC1(F)F)N1CC2CC(C1)N2 (stereo not drawn) : 100
CCC(=O)N1CC2CC(C1)N2 : 180
O=C(C1CC=CC1)N1CC2CC(C1)N2 : 1900

IN: May I ask what EC50 has been recorded for CC(=O)N1CC2CC(C1)N2 ?
OUT: 750

IN: Which measured EC50 value corresponds to O=C(C1CCC1)N1CC2CC(C1)N2 ?
OUT: 370

IN: Given the compound O=C([C@H]1C[C@H]1F)N1CC2CC(C1)N2 , what is its reported EC50?
OUT: 62

###

- Protocol: Ratio of drug level in po dosed rat brain to plasma after 0.5 hrs by LC-MS/MS analysis
- Assay type: ADME, organism-based
- Assay context: read-out: BPR
Quantity name: Kp at 0.5 h
// return just the number, without any unit appended

IN: Consider the compound O=C(C1CC1)N1CC2CC(C1)N2 and give its measured Kp at 0.5 h.
OUT: 0.22

###

- Assay system: Neuronal acetylcholine receptor; alpha4/beta2 (Homo sapiens, UniProt P17787+P43681)
- Protocol: Agonist activity at human alpha4beta2 nAChR low sensitivity isoform transfected in SH-EP1 cells assessed as calcium flux by FLIPR assay relative to control
- Assay type: cell-based
Label yes for high-side Emax (at or above 90%) and no for low-side Emax (below it).

Examples from the recorded data:
O=C(C1CC1(F)F)N1CC2CC(C1)N2 (centres undefined) : yes
O=C([C@@H]1C[C@@H]1F)N1CC2CC(C1)N2 : yes
CCCC(=O)N1CC2CC(C1)N2 : yes
CC(=O)N1CC2CC(C1)N2 : yes
O=C([C@H]1C[C@H]1F)N1CC2CC(C1)N2 : yes

Shifting focus to the molecule that follows.
IN: # check: Emax of O=C(C1CCC1)N1CC2CC(C1)N2 is greater than or equal to 90%
OUT: yes

###

- Assay system: Neuronal acetylcholine receptor; alpha4/beta2 (Homo sapiens, UniProt P17787+P43681)
- Protocol: Displacement of [3H] nicotine from human alpha4beta2 nAChR transfected in SH-EP1 cells by liquid scintillation counting
Quantity name: log10 Ki (log10 of the value in nM)
Note: values are log10 of Ki expressed in nM.

CCC(=O)N1CC2CC(C1)N2 : 0.78
C[C@H]1C[C@@H]1C(=O)N1CC2CC(C1)N2 : 1.23
O=C(C1CC1)N1CC2CCC(C1)N2 : 2.51

IN: Return reported log10 Ki; argument: O=C(C1CC1)N1CC2CC1CN2 (configuration not stated)
OUT: 3.45

IN: Reported log10 Ki, compound O=C(C1CC1)N1CCNCC1 : ____
OUT: 3.78

IN: Look up log10 Ki for this compound: C[C@H]1C[C@H]1C(=O)N1CC2CC(C1)N2
OUT: 0.85

###

EC50 values for the compounds below.
- Assay system: Neuronal acetylcholine receptor; alpha4/beta2 (Homo sapiens, UniProt P17787+P43681)
- Protocol: Agonist activity at human alpha4beta2 nAChR low sensitivity isoform transfected in SH-EP1 cells assessed as calcium flux by FLIPR assay
- Format: cell-based
Answer with a number only, understood to be in µM.

IN: Name the recorded EC50 for O=C(CC1C=CCC1)N1CC2CC(C1)N2 (stereo not given) .
OUT: 37

IN: So what's the measured EC50 for this one? CC(=O)N1CC2CC(C1)N2
OUT: 9.7

IN: // lookup EC50 for O=C(C1CCCC1)N1CC2CC(C1)N2
OUT: 29

IN: I would be grateful if you could share the reported EC50 for O=C(C1CC1)N1CC2CC(C1)N2 .
OUT: 0.85

IN: Form field: reported EC50 of C[C@@H]1C[C@@H]1C(=O)N1CC2CC(C1)N2
OUT: 3.8

###

- Assay system: Neuronal acetylcholine receptor; alpha4/beta2 (Homo sapiens, UniProt P17787+P43681)
- Protocol: Agonist activity at human alpha4beta2 nAChR low sensitivity isoform transfected in SH-EP1 cells assessed as calcium flux by FLIPR assay
- Format: cell-based
So basically: is EC50 under 6 µM? Then Met. Not under? Then Not met.

O=C(C1CCC1)N1CC2CC(C1)N2 : Not met
CCCC(=O)N1CC2CC(C1)N2 : Met
O=C(C1CC=CC1)N1CC2CC(C1)N2 : Not met

IN: Take the compound C[C@H]1C[C@H]1C(=O)N1CC2CC(C1)N2 and say whether its EC50 is less than 6 µM.
OUT: Met

IN: Record C[C@H]1C[C@@H]1C(=O)N1CC2CC(C1)N2 : is its EC50 strictly below 6 µM?
OUT: Not met

###

- Assay system: Neuronal acetylcholine receptor; alpha3/alpha6/beta2/beta3 (Homo sapiens, UniProt P17787+P32297+Q05901+Q15825)
- Protocol: Displacement of [3H]epibatidine from human alpha6/alpha3beta2beta3 nAChR transfected in CHO cells by liquid scintillation counting
Quantity name: log10 of Ki (log10 of the value in µM)
In our notation, the value equals log10 of Ki in µM.

Some solved cases for reference:
C[C@H]1C[C@@H]1C(=O)N1CC2CC(C1)N2 : -0.51
CC(C)C(=O)N1CC2CC(C1)N2 : -0.24
CCCC(=O)N1CC2CC(C1)N2 : -0.46

IN: Fill blank: measured log10 of Ki of the compound C[C@@H]1C[C@@H]1C(=O)N1CC2CC(C1)N2 is ____.
OUT: -1.04
